Exercise: state measured pEC50 for each of the binders provided.
Biological target: T1, human αvβ6 on 293F:huβ6 cells (human, UniProt P06756 31-1048; P18564 22-788)
T1 chain 1: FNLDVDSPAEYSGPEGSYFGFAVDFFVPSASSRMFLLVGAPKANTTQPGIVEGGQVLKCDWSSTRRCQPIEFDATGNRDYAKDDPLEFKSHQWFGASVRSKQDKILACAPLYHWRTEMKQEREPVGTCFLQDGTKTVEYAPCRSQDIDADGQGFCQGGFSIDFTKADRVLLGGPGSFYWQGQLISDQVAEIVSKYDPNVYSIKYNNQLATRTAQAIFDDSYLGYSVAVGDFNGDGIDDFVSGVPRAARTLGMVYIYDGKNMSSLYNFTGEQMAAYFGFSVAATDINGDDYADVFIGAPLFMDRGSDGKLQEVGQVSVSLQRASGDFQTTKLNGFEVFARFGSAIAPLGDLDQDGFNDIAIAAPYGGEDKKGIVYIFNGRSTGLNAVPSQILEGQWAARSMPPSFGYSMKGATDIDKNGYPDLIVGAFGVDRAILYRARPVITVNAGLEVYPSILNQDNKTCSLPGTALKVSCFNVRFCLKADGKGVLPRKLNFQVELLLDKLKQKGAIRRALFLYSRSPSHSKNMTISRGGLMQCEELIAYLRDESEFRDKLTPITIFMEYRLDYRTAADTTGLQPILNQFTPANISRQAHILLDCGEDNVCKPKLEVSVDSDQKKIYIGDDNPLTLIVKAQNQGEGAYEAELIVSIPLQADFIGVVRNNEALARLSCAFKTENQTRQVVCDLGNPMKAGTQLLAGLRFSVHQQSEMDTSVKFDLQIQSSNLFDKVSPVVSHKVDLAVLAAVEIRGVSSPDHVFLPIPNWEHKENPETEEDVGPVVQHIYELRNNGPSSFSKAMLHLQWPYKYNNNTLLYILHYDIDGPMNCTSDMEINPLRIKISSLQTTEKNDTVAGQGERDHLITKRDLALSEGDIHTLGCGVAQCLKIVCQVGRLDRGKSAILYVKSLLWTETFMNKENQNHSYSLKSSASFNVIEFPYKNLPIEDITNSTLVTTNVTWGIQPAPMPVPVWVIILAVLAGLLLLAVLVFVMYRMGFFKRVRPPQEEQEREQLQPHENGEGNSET
T1 chain 2: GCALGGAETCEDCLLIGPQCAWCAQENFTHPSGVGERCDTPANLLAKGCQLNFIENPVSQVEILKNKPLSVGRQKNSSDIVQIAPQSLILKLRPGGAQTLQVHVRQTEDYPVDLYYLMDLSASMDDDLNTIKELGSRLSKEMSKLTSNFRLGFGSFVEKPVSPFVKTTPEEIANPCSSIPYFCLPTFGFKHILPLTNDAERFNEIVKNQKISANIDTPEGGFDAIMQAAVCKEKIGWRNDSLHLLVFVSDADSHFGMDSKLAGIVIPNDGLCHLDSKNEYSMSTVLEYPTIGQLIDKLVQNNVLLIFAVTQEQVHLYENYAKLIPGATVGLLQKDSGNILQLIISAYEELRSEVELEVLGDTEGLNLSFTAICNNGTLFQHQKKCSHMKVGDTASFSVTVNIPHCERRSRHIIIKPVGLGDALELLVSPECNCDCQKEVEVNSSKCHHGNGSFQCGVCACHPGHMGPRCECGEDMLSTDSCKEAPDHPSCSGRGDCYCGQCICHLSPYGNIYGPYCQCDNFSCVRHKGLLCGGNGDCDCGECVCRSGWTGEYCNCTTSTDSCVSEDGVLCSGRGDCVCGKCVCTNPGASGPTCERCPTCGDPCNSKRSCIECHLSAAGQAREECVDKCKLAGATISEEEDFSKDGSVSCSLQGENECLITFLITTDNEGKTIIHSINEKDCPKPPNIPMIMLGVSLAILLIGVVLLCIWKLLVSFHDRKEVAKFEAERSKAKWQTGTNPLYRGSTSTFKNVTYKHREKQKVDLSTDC
Experiment: competition binding on 293F cells; 2nM m2A2-AF647 competitor
Give bare numbers, as −log10 of the molar value.

{"columns": ["Binder", "pEC50"],
 "data": [
  ["h2A2 HALF (antibody, V domains shown) VH: QFQLVQSGAEVKKPGASVKVSCKASGYSFTDYNVNWVRQAPGQGLEWMGVINPKYGTTRYNQKFKGRVTMTRDTSTSTVYMELSSLRSEDTAVYYCTRGLNAWDYWGQGTLVTVSS VL: DIQMTQSPSSLSASVGDRVTITCQASENIYGALNWYQQKPGKAPKLLIYGATNLATGVPSRFSGSGSGTDYTFTISSLQPEDIATYYCQNVLTTPYTFGQGTKLEIKR", 7.85]
]}

Note to self: pEC50 recorded for h2A2 HALE (antibody, V domains shown) VH: QFQLVQSGAEVKKPGASVKVSCKASGYSFTDYNVNWVRQAPGQGLEWMGVINPKYGTTRYNQKFKGRVTMTRDTSTSTVYMELSSLRSEDTAVYYCTRGLNAWDYWGQGTLVTVSS VL: DIQMTQSPSSLSASVGDRVTITCQASENIYGALNWYQQKPGKAPKLLIYGATNLADGVPSRFSGSGSGRDYTFTISSLQPEDIATYYCQNVLTTPYTFGQGTKLEIKR was 8.30
